MEASUREMENT_TARGET: HLA DRB1*0901 (human)
METHOD_NOTES: competition with 125I probe peptide, purified HLA; crude peptide batch
pIC50: −log10 of the molar value.
REPORTED_PROPERTY: pIC50

> print(dat)
                                     binder  numeric.readout
1  LQAIELQLTLETIYN (modifications not checked) [HPV16.E2.070 HTL epitope]             5.84
